Molecular target: c-MET (Homo sapiens, UniProt P08581)
Construct: endogenous in cells
Sequence (P08581 25-1390): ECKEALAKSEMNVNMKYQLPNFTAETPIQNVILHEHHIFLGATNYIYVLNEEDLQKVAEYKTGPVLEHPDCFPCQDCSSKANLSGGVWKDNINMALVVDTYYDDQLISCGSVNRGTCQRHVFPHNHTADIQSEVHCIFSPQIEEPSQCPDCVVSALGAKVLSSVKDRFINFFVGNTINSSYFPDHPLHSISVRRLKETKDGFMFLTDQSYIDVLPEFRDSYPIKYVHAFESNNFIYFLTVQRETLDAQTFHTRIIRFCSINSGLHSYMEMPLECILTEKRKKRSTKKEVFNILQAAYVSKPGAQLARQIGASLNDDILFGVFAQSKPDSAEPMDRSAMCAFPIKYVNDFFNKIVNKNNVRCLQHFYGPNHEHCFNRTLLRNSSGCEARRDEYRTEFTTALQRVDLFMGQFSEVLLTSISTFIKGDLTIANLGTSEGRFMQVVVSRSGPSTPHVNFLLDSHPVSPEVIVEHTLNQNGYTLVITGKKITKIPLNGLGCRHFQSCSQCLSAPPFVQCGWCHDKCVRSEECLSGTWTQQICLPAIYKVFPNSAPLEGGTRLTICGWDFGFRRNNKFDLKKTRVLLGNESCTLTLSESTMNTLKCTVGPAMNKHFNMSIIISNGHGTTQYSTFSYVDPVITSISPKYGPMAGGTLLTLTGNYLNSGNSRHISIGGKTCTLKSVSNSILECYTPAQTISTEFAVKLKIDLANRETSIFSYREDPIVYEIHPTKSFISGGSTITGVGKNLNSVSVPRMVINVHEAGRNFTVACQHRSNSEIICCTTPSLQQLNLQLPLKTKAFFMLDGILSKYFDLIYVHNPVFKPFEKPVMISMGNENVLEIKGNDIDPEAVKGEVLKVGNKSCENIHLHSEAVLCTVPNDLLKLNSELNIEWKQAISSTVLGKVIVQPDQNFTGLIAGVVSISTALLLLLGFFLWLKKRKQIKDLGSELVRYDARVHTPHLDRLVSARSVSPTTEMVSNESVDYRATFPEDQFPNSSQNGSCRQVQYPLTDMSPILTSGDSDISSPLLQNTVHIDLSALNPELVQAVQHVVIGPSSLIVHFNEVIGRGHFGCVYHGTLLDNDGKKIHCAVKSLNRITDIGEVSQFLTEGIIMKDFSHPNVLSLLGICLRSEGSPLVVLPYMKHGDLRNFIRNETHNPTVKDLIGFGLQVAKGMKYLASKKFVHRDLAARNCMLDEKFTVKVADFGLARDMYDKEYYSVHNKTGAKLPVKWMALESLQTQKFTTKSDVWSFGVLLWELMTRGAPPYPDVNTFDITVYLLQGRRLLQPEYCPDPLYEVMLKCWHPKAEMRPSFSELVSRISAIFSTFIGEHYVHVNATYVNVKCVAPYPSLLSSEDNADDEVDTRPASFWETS
Assay: MET cell mechanistic assay (MKN45), phosphorylated MET ELISA
Settings: MKN45 cell line, 4 hours incubation, inhibition of phosphorylated MET, at least duplicate experiments; read-out: MET mech IC50
Each item that follows carries a reported IC50.

Recorded IC50, per entry:
{"test smiles": "O[C@H]1CC[C@H](n2cc(-c3cnc4[nH]cc([C@@H](CF)c5c(OC(F)F)ccc(F)c5Cl)c4c3)cn2)CC1", "IC50": "100 to 1000 nM"}
{"test smiles": "COc1ccc(F)c(Cl)c1[C@@H](CF)c1c[nH]c2ncc(-c3cnn([C@H]4CC[C@H](O)CC4)c3)cc12", "IC50": "≤ 30 nM"}

Reported IC50 for O[C@H]1CC[C@H](n2cc(-c3cnc4[nH]cc([C@H](CF)c5c(OC(F)F)ccc(F)c5Cl)c4c3)cn2)CC1 : what is it?
≤ 30 nM
